Record form. Attribute: % inhibition of gametocyte viability. Fill in for each entry.
system: Plasmodium falciparum NF54 stage IV/V gametocytes; assay: % inhibition of gametocyte viability (PrestoBlue); higher = more inhibition; details: 5 µM; 48 h

Compound	% inhibition of gametocyte viability
Cc1onc(-c2ccccc2)c1-c1ccc(S(N)(=O)=O)cc1	41.6%
O=C(NCc1ccc2c3c(cccc13)C(=O)N2)c1cccs1	< 0%
CCCNc1ccc(S(=O)(=O)Nc2cc(C)on2)cc1	6.51%
CCCCN1C[C@H](O)[C@@H](O)[C@H](O)[C@H]1CO	1.8%
NCc1ccc(S(N)(=O)=O)cc1	15.6%
CN(C)CC(=O)Nc1ccc2[nH]c(=O)c3ccccc3c2c1	< 0%
Nc1cnn(C2OC(CO)C(O)C2O)c(=O)n1 (centres undefined)	12.5%
CCC(C)NCC(O)Cn1c2ccc(Cl)cc2c2cc(Cl)ccc21 (centres undefined)	87.6%
Cc1[nH]c2ccccc2c1CCNCc1ccc(/C=C/C(=O)NO)cc1	34.4%
COc1ccc(C2CNC(=O)C2)cc1OC1CCCC1 (centres undefined)	12%

Parameter requested: % inhibition of gametocyte viability. Apply to each item below.
1. Clc1cccc(-c2nnc(-c3ccccc3)o2)c1
2. Clc1cc(Cl)c2c(c1)CCc1ccccc1C2n1ccnc1 (centres undefined)
3. O=S(=O)(NCB(O)O)c1cc2c(Cl)ccc(Cl)c2s1
4. Cc1ccc(NC(=O)c2ccc(CN3CCN(C)CC3)cc2)cc1Nc1nccc(-c2cccnc2)n1
5. CC(C)(C)c1cccc(-c2nc3cc(C(=N)N)ccc3[nH]2)c1O
6. Cc1cc(C)n(O)c(=O)c1

[reply]
1. < 0%
2. 76.1%
3. 27.1%
4. < 0%
5. 41.8%
6. 3.7%

###

tested on: Plasmodium falciparum NF54 stage IV/V gametocytes; assay: % inhibition of gametocyte viability (ATP bioluminescence); higher = more inhibition; conditions: 1 µM; 24 h
Record form. Attribute: % inhibition of gametocyte viability. Fill in for each entry.

Compound	% inhibition of gametocyte viability
NC(=O)[C@@H]1CC[C@@H]2CN1C(=O)N2OS(=O)(=O)O	1.17%
CC(C)CCN1C(=O)C(C2=NS(=O)(=O)c3cc(NS(C)(=O)=O)ccc3N2)=C(O)[C@@H]2[C@H]3CC[C@H](C3)[C@@H]21	< 0%
COc1nc2ccc(Br)cc2cc1[C@@H](c1ccccc1)[C@@](O)(CCN(C)C)c1cccc2ccccc12	< 0%
CCCCc1ccc(-c2cc(C(=O)O)cc(-c3ccc(Cl)cc3)n2)cc1	< 0%
NCCCc1ccccc1C(=O)Nc1ncc([N+](=O)O)s1	0.0401%

Parameter requested: % inhibition of gametocyte viability. Apply to each item below.
1. O=C(c1ccc(F)cc1)N1CCN2C(=O)c3ccccc3C12c1ccccc1 (centres undefined)
2. CCOc1noc2cc(OCCC3CCN(c4ccc(C)nn4)CC3)ccc12

[reply]
1. < 0%
2. 6.06%

###

system: HepG2-A16-CD81; test: % inhibition of HepG2 viability (CellTiter-Glo); higher = more toxic; conditions: 5 µM;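 note: HepG2-A16-CD81 hepatoma cells plated as in the liver-stage assay but without sporozoites, with DMSO wells as negative and 25 µM puromycin as positive control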
Measurement name: % inhibition of HepG2 viability (%)
Numbers only, in %.

Please review the following examples before continuing.
Compound	Assayed system	Observed result
COc1nc2ccc(Br)cc2cc1[C@@H](c1ccccc1)[C@@](O)(CCN(C)C)c1cccc2ccccc12	HepG2-A16-CD81	-0.302
Clc1cccc(-c2nnc(-c3ccccc3)o2)c1	HepG2-A16-CD81	-5.12
Cc1ccc(N2CCC(CCOc3ccc(S(C)(=O)=O)cc3)CC2)nn1	HepG2-A16-CD81	1.45

Parameter requested: % inhibition of HepG2 viability. Apply to each item below.
1. Cc1[nH]c2ccccc2c1CCNCc1ccc(/C=C/C(=O)NO)cc1
2. NC[C@H]1O[C@H](O[C@H]2[C@H](O)[C@@H](O[C@H]3O[C@H](CO)[C@@H](O)[C@H](N)[C@H]3O)[C@H](N)C[C@@H]2N)[C@H](N)C[C@@H]1O
3. NS(=O)(=O)c1ccc(NC(=O)NC(c2ccccc2)c2ccccc2)cc1
4. Cn1cc(NC(=O)c2cc(NC(=O)c3ccc(/C=C/c4cnc5ccccc5c4)cc3)cn2C)cc1C(=O)NCCN1CCOCC1
5. NC(=O)c1[nH]c2ccc(S(N)(=O)=O)cc2c1-c1ccccc1
6. CCc1ccc(C2CC(C(F)(F)F)n3ncc(C(=O)NCc4ccc(OC)cc4)c3N2)cc1 (configuration not stated)
7. CCC(C)n1ncn(-c2ccc(N3CCN(c4ccc(OCC5COC(Cn6cncn6)(c6ccc(Cl)cc6Cl)O5)cc4)CC3)cc2)c1=O (configuration not stated)

[reply]
1: 54.5; 2: -3.85; 3: 4.57; 4: -5.82; 5: 8.64; 6: 8.05; 7: 26.2

Parameter requested: % inhibition of HepG2 viability. Apply to each item below.
1. O=P(O)(O)C(CCCc1cccc(Oc2ccccc2)c1)S(=O)(=O)O (configuration not stated)
2. COc1ccc(C)cc1NC(=O)c1ccc(S(=O)(=O)N2CCCCC2)cc1

[reply]
-5.33
6.14

###

Record form. Attribute: % inhibition of asexual blood stage proliferation. Fill in for each entry.
test system: Plasmodium falciparum NF54 asexual blood stage; assay: % inhibition of asexual blood stage proliferation (pLDH); higher = more inhibition; settings: 2 µM; 72 h
Answers are plain numbers, in %.

Please review the following examples before continuing.
Chem smiles	Units text	Observed result
O=C(Nc1ccc(Cl)c(C(F)(F)F)c1)C(CCCl)C(=O)Nc1ccc(Cl)c(C(F)(F)F)c1	%	19.9
Cc1onc(-c2ccccc2Cl)c1C(=O)N[C@@H]1C(=O)N2[C@@H]1SC(C)(C)[C@@H]2C(=O)O	%	8.35

Parameter requested: % inhibition of asexual blood stage proliferation. Apply to each item below.
1. Cc1cc(Nc2ccc(F)cc2)nc(SCc2nc3ccccc3[nH]2)n1
2. NC(=O)c1c(N)sc2c1CCCCC2
3. Cn1c2ccccc2c(=O)c2c(O)cccc21

[reply]
1: -9.36; 2: 4.8; 3: 20.3

###

system: Plasmodium falciparum NF54 stage IV/V gametocytes; assay: % inhibition of gametocyte viability (ATP bioluminescence); higher = more inhibition; conditions: 5 µM; 24 h
Record form. Attribute: % inhibition of gametocyte viability. Fill in for each entry.

Molecule	Observed result
CN(C)CCCOc1ccc(-c2ccc3ncc4c(c3c2)n(C2CCOCC2)c(=O)n4C)cn1	33.7%
O=C(NO)C1(CS(=O)(=O)c2ccc(Oc3ccc(Cl)cc3)cc2)CCOCC1	< 0%
O=C(NC(=O)N1CCCc2ccccc21)c1cccc(Cl)c1	< 0%
Cc1nc(Nc2ccc(F)cc2)nc(N2CCc3ccccc3C2C)c1C (centres undefined)	43.7%
O=C(CCCC(F)(F)F)N1CCC(c2nc(-c3nccs3)no2)CC1	< 0%
CCCC(=O)OCCc1ccccc1	< 0%
CCCCc1ccc(-c2nc(C)c(C(=O)OC)s2)cc1	< 0%
Cc1cc(C)n(O)c(=O)c1	3.75%

Parameter requested: % inhibition of gametocyte viability. Apply to each item below.
1. O=C(O)C[C@H]1CC[C@H](c2ccc(-c3ccc(Nc4ccc(C(F)(F)F)nc4)cn3)cc2)CC1
2. O=C(Nc1ccc(F)cc1)c1nn(-c2ccccc2)c(=O)cc1Cl

[reply]
["6.34%", "5.32%"]

Parameter requested: % inhibition of gametocyte viability. Apply to each item below.
1. O=C(NN1C(=O)[C@@H]2C3C=CC([C@H]4C[C@@H]34)[C@@H]2C1=O)c1ccc(C(F)(F)F)cc1
2. COc1ccc(SCC(=O)N2c3ccccc3Sc3ccccc32)cc1

[reply]
< 0%
< 0%

Parameter requested: % inhibition of gametocyte viability. Apply to each item below.
1. Cc1ccc(S(=O)(=O)Nc2cccc3cccnc23)cc1
2. c1ccc(-c2nnc3c4ccccc4c(N4CCNCC4)nn23)cc1
3. C[C@@H](NC(=O)c1cccc(-c2c[nH]c(-c3cc4ccccc4cn3)n2)c1)c1ccc(F)cc1
4. O=C(Nc1nnc(-c2ccccc2)o1)c1ccc(F)cc1
5. Cc1cc(O)c2c(c1)C(=O)c1c(I)c(O)c(I)c(O)c1C2=O
6. Nc1ccc(-c2nc3cc(C(F)(F)F)ccc3n2C23CC4CC(CC(C4)C2)C3)cc1
7. OC1O[C@H](CSc2ccc(F)cc2)[C@@H](O)[C@H]1O (some centres undefined)
8. N[C@H](CCC(=O)N[C@@H](Cc1c[nH]c2ccccc12)C(=O)O)C(=O)O

[reply]
47.3%
0.889%
83.2%
< 0%
< 0%
< 0%
< 0%
< 0%

Parameter requested: % inhibition of gametocyte viability. Apply to each item below.
1. N#C/C(=C1/SC[C@H](c2ccc(Cl)cc2Cl)S1)n1ccnc1
2. O=C(O)C(Cc1c[nH]c2ccccc12)N1C(=O)c2ccccc2C1=O (centres undefined)
3. COc1c(F)c(F)cc2c(=O)c(C(=O)O)cn(C3CC3)c12
4. O=C(NNC(=S)Nc1ccc(Cl)cc1)c1ccncc1
5. CC[C@H](CO)Nc1nc(NCc2ccccc2)c2ncn(C(C)C)c2n1
6. Cc1oncc1C(=O)Nc1ccc(C(F)(F)F)cc1

[reply]
1. < 0%
2. < 0%
3. < 0%
4. < 0%
5. < 0%
6. < 0%
